system: HS 578T breast; assay: NCI-60 one-dose screen, 48 h (100 = growth as untreated, 0 = no growth, -100 = all killed); conditions: 10 µM unless noted
The panel holds about 83,000 compounds, 20% with a hit somewhere; the sample as a whole holds those more often. Activity calls are given as the source filed them. Rule for the calls: active = growth percent below 10; inactive = the rest.
Provide the recorded growth for the entries that follow.

Here are 2 molecules. What values of growth were reported for them?
1. Nc1ncnc2c1N=C(c1ccc(Cl)cc1)CC(c1ccc3c(c1)OCO3)N2 (stereo not given)
2. c1cnc2[nH]cc(-c3csc(-c4cn(CCCN5CCOCC5)c5ccccc45)n3)c2c1

93.8% (inactive)
28.5% (inactive)

Could I get growth for every one of these entries?
1. COC(=O)CNC(=O)[C@H](Cc1ccccc1)NCc1ccncc1
2. O=C1C(Cl)=C(Nc2ccc(O)cc2)C(=O)N1Cc1ccc(Cl)cc1
3. Cc1ccc(/C=C2\CN(C(=O)OC(C)(C)C)C/C(=C\c3ccc(C)cc3)C2=O)cc1
4. O=C(O)CNC1=C(Cl)C(=O)c2ccccc2C1=O
5. O=C1c2ccc3c4ccc5c6c(ccc(c7ccc(c2c37)C(=O)N1CCC[P+](c1ccccc1)(c1ccccc1)c1ccccc1)c64)C(=O)N(CCC[P+](c1ccccc1)(c1ccccc1)c1ccccc1)C5=O
6. CCCCNC(=O)Oc1ccc(/C(=C(/CC)Cc2ccccc2)c2ccc(OCCN3CCCCCC3)cc2)cc1

1: 106% (inactive); 2: 78.6% (inactive); 3: 59.6% (inactive); 4: 124% (inactive); 5: 81.2% (inactive); 6: 56.6% (inactive)

Go through the items and report each one's growth.
1. CN(C)CC(=O)Nc1ccc2ncnc(Nc3ccc(Oc4cccc(C(F)(F)F)c4)c(Cl)c3)c2c1
2. COc1ccc(-c2ccc3cnc4sc(-c5ccc(OC)cc5)nc4c3n2)cc1

1: 79.1% (inactive); 2: 94.4% (inactive)
